system: T-47D breast; experiment: NCI-60 one-dose screen, 48 h; conditions: 10 µM unless noted
Compounds without any hit were thinned out: in the full panel of roughly 83,000, 20% have a hit. Activity calls are given as the source filed them. The calls were made as follows: active = growth percent below 10; inactive = the rest.
Form entry, call: pick from active, inactive

CC(C)(C)c1ccc(O)c(Br)c1 :: inactive
O=C(O)c1ccc2c(c1)C(=O)c1ccccc1C2=O :: inactive
O=C(OC12CC3CC(CC(C3)C1)C2)c1ccc(NCc2cc(O)ccc2O)cc1 :: active
O=[N+]([O-])c1cc(-c2ccccc2)c(O)c([N+](=O)[O-])c1 :: inactive
O=C1/C(=C/c2ccccc2)CCC/C1=C\c1ccccc1 :: inactive
COC(=O)c1nc(=S)[nH]c(C(=O)OC)c1C(=O)c1ccc(Cl)c(Cl)c1 :: inactive

Query: Record request — test call for "c1csc(-c2[nH]nc3c2CCc2ccccc2-3)c1"
Response: active

Query: Record request — test call for "O=C1C(=O)c2cccnc2-c2ncccc21"
Response: active

Query: Record request — test call for CCN(CC)CCNC(Cc1ccccc1)c1ccc(OCc2ccccc2)cc1 (centres undefined)
Response: inactive

Query: Record request — test call for "NCCCN(CCCN)CCCNCc1c2ccccc2c(CNCCCN(CCCN)CCCN)c2ccccc12"
Response: inactive

Query: Record request — test call for "Cc1nc(Sc2nc3ccc([N+](=O)[O-])cc3s2)sc1C"
Response: inactive
